# target_under_test: S1P1 (Homo sapiens (Human))
# test_summary: Receptor [35S] GTPγS Binding Assay, S1P1
# condition_set: membranes from S1P1/CHO cells
pEC50: −log10 of the molar value.
experimental_readout: pEC50

Answered cases to consult:
# input molecule: C/C(=N\OCc1ccc(C2CCCCC2)c(C(F)(F)F)c1)c1ccc(C(=O)N2CCC(N)(COP(=O)(O)O)C2)cc1 (single isomer, unassigned) [Example 59] ; wanted: its pEC50
6.87

Now give it for C/C(=N\OCCCc1ccccc1)c1ccc(C(=O)N2CCCC(N)(COP(=O)(O)O)C2)cc1 (single isomer, unassigned) [Example 69] too.
6.11

Also CC(=NOCc1ccc([N+](=O)[O-])cc1)c1ccc([C@@H]2CC[C@](N)(COP(=O)(O)O)C2)cc1 , if possible.
7.75

Input CC(=NOCc1ccc(F)cc1)c1ccc([C@@H]2CC[C@](N)(COP(=O)(O)O)C2)cc1
7.58

Here is the next molecule: C/C(=N\OCCCc1ccccc1)c1ccc(C(=O)N2CCC(N)(COP(=O)(O)O)CC2)cc1
6.49

Param item: CC(=NOCC1CCCCC1)c1ccc([C@@H]2CC[C@](N)(COP(=O)(O)O)C2)cc1
7.69

P = C/C(=N\OCCCc1ccccc1)c1ccc(C(=O)N2CCC(N)(COP(=O)(O)O)C2)cc1 (single isomer, unassigned) [Example 61]
Q = CC(=NOCCCc1ccccc1)c1ccc([C@H]2CC[C@](N)(COP(=O)(O)O)C2)cc1
Could you please tell me which of these two has the higher pEC50: P or Q ? // respond with label for picked entry
Q

* * *

# target_under_test: S1P1 (Homo sapiens (Human), UniProt P21453)
# Sequence (P21453 whole entry): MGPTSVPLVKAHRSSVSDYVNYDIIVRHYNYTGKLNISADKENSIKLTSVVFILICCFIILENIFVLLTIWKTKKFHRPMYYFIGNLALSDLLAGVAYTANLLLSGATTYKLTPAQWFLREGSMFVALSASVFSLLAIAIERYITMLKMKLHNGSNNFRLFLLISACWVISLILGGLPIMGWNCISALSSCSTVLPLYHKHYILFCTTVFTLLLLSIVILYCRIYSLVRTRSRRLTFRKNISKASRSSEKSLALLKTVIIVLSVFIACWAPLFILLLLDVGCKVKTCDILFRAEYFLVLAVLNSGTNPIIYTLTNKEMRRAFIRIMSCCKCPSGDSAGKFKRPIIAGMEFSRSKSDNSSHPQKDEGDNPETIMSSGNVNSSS
# test_summary: Receptor [35S] GTPγS Binding Assay, S1P1
# condition_set: membranes from S1P1/CHO cells
# Description: Receptor [^35S] GTPγS Binding Assays: Compounds were loaded in a 384 Falcon v-bottom plate (0.5 μl/well in an 11 point, 3-fold dilution). Membranes prepared from S1P1/CHO cells or EDG3-Gal5-bla HEK293T cells (EDG3 equivalent S1P3) were added to the compound plate ([…], final protein 3 μg/well) with MULTIDROP®. […]
pEC50: −log10 of the molar value.
experimental_readout: pEC50

Form field: pEC50 recorded for C/C(=N\OCCc1ccccc1)c1ccc(C(=O)N2CCC(N)(COP(=O)(O)O)CC2)cc1 with S1P1 (Homo sapiens (Human), UniProt P21453) (enter value)
6.53

Ok, now C/C(=N\OCCCc1ccccc1)c1ccc(S(=O)(=O)N2CCC(N)(COP(=O)(O)O)CC2)cc1
6.62
